# System: PPARg DBDmut:RXRa IVT, anti-PPARg (DBD mutation: PPARg1 K132A/R137A, NR concentration 270 nM, RXRa partner concentration 90 nM)
# Method description: PBM binding z-score (relative to random genomic background probes); higher = stronger binding; sequences stand for … in GC…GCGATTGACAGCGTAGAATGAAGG
Assay readout: PBM binding z-score

* ATAGACAGGTGAGTGAAGGTAACTCAGCTGGACG | 0.246
* ACTAGAAGGCCAAGTTTGGGTCACTCAAACAAAG | -0.516
* AGAACGAGGGCAATGAGTTGATAACACGGGTGGC | -0.222
* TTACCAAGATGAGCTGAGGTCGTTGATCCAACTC | -0.000343
* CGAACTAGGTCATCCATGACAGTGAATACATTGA | 4.46
* TCGAGTAGGCTAGGGGCATTCAGAATGGCGTCGA | -1.38
* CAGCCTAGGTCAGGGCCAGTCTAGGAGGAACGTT | -1.02
* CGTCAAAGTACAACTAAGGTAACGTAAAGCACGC | -0.144
* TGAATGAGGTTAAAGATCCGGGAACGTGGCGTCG | 0.774
* TAGCCTAGGTCATTCCGGGGCCAGTATAGAAAGC | -0.235
* CCTACTGGGCCGTCAGGTCATTGATATCAACGTT | -0.782
* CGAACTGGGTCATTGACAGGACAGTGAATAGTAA | 1.06
* TATACAGGGTCAAAGGCCAGCGTACGAATGTCGA | 2.29
* CTCGAAAGGTCGGTTGAGGTGATTATACGGATAA | 0.351
* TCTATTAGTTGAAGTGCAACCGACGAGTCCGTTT | 0.956
* CCAGACAGGTGAAAGGTAACTAAGTCTGGTACGC | -0.18
* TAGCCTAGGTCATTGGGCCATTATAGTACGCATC | 0.472
* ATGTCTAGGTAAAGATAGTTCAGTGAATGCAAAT | 0.413
* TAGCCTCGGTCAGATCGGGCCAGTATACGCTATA | -0.636
* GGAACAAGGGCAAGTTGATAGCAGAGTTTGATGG | -0.205
* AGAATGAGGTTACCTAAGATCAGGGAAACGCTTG | 1.22
* TCTTGTAGATCAGAAGGTTAAGAAAGCTGGCCAA | 0.0732
* TGTCAAACTTCAAAGGTAACGTAAGTATCCACAC | 0.991
* GCGACAGGGGCATCAGCAGGTTACCATAACTTAA | -1.02

====

# System: RXRa DBDmut IVT, anti-RXR (DBD mutation: RXRa K156A/R161A, NR concentration 90 nM)
# Method description: PBM binding z-score (relative to random genomic background probes); higher = stronger binding; sequences stand for … in GC…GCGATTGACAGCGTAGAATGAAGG
Entries are grouped by PBM binding z-score into these classes: bucket A = under 0.006, bucket B = from 0.006 up to 1, bucket C = 1 and over

• ACAAACAGGTGAGTGAAGGTAACTCAGCTGGACG = bucket A
• CCGACTGGGGCAGAAAGGTTGCCATACCATCCGG = bucket A
• ATCTCTAGGTAAGACTCCGTTCAGTGAAGAACGC = bucket B
• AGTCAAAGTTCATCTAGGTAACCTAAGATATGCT = bucket C
• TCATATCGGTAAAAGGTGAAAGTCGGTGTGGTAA = bucket C
• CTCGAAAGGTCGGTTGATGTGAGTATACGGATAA = bucket B
• ATCGACAGGTCGAGGTGAGTATAGAGAAAGGGAA = bucket A
• AGAACTAGGGCAATGAGTTGATAGCACGGGTGGC = bucket B
• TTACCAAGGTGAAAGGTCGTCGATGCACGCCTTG = bucket B
• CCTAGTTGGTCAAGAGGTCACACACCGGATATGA = bucket C
• TCTATTAGTTGATTAGGCCAACCGAAACAGCGGA = bucket C
• CCGACTGGGGCAGAAGGTTACCATAAGCCAGCCC = bucket A
• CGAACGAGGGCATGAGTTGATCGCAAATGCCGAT = bucket C
• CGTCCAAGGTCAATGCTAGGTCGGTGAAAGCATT = bucket C
• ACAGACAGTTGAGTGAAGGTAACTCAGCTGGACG = bucket A
• ACAGACAGGTTATGAAGGTAACTCAGGCTATCAT = bucket B
• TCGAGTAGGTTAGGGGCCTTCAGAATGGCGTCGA = bucket A
• TCATATAGGTAAATGCTAGGTGAAACTCCGATCT = bucket C
• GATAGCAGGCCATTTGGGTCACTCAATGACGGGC = bucket B

====

Reported PBM binding z-score is given for each of the following sequences.
# Tested on: THRa homodimer (NR concentration 90 nM)
# Method description: PBM binding z-score (relative to random genomic background probes); higher = stronger binding; sequences stand for … in GC…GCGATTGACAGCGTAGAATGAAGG
Assay readout: PBM binding z-score

- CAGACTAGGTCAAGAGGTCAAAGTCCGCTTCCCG: 2.26
- ATCTCTAGGTAAGAATCAGTTCAGTGAAGAACGC: 0.68
- ATCTATAGGTAAGACTCAGTTCAGTGAAGAACGC: 0.24
- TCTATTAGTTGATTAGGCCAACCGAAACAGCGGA: 0.713
- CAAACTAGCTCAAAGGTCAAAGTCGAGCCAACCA: 0.75
- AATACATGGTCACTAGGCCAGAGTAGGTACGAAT: -0.302
- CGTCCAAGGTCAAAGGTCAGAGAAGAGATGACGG: 2.39
- TAGCCTAGGTCAGATCGGGCAAGTATACGCTATA: -0.283
- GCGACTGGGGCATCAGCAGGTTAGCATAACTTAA: -0.74
- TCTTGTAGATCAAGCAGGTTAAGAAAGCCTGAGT: -0.339
- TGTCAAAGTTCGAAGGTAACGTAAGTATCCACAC: 0.0268
- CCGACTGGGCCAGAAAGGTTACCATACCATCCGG: -0.354
- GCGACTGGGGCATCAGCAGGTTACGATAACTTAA: -0.273
- TCTTGAAGATCAATAGAGGTTAAGAAAGTGCGCT: -0.674
- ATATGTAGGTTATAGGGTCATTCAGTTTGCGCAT: 3.31
- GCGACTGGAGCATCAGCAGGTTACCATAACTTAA: -0.37
- TCTTGTAGATCAAAGGATAAGAAAGCCGAAGCCT: -0.847
- ACTGACAGGTGAGTGAAGGTAACTCAGCTGGACG: -0.42
- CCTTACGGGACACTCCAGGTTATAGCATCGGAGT: 0.457
- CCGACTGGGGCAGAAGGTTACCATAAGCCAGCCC: -0.571
- CCGACTGCGGCATAAGGTTACCATAAGCCAGCCC: 1.49
- ACTTACGGGTCAACGAGGTTAAAGCACGCGTATA: 1.17

====

Some sequences, each annotated with its measured PBM binding z-score.
# Tested on: RARa homodimer (NR concentration 270 nM)
# Method description: PBM binding z-score (relative to random genomic background probes); higher = stronger binding; sequences stand for … in GC…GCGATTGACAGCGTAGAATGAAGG
Assay readout: PBM binding z-score

- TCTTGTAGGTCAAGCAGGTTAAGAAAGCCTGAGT: 0.596
- TCATATAGGGAATACAGGTGAAAGTCGGCATCTA: 1.4
- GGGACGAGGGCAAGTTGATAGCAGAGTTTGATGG: -0.141
- GCTCGGAGGACAAGGTCAGAGATTTGTCCGTAGA: -0.275
- TTACCAAGGGGAGCTGAGGTCGTTGATCCAACTC: -0.882
- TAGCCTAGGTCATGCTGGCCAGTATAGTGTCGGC: -0.528
- TCTTCTAGGTCAGTTGGTCAGCTAACGAGCTGCC: 1.05
- GCTAGTTGGTCAGTAAAAGGTCAGACACCGGTCG: 0.966
- TCATACAGGTAAAAGGTGAAAGTCGGTGTGGTAA: 1.16
- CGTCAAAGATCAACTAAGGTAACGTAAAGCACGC: 0.595
- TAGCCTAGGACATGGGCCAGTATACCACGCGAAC: -0.515
- TTACCAAGGTGAAAGGACGTTGATGCACGCCTTG: -0.181
- AATACAGGGTCATCGTAGGCCAGTGTACGCACAG: 1

====

Examples of sequences with documented PBM binding z-score follow.
# Tested on: LXRa:RXRa (NR concentration 270 nM, RXRa partner concentration 90 nM)
# Method description: PBM binding z-score (relative to random genomic background probes); higher = stronger binding; sequences stand for … in GC…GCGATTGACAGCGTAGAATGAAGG
Assay readout: PBM binding z-score

• TGAATGAGGTTAAAGATCAGGGCACGTGGCGTCG = 2.69
• GCTGCTAGGTCAGGTTGATCAGCTAACGGGTACG = 0.585
• AGAATGAGGTTATTAAGATCAGGGTATTGCGGTC = 1.29
• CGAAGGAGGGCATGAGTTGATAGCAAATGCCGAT = -0.0888
• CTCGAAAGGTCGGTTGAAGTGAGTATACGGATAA = 1.58
• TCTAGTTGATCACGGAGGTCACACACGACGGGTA = 3.08
• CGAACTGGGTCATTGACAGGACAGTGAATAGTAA = 1.97
• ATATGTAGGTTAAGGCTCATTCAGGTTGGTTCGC = 0.861
• GGATCGAGGGCAAGTTGATAGCAGAGTTTGATGG = 0.317
• TCTATTAGTAGATTAGGGCAACCGAAACAGCGGA = 0.084
